Some molecules, each annotated with its measured log10 TGI.
system: RXF 393 renal; assay: NCI tumour cell line growth inhibition, 48 h
Please interpret these as log10 of TGI where TGI is in µM.

Look over these answered cases.
# molecule, log10 TGI
records = [
    ("Cl.Fc1c[c-]c(-c2ccccn2)c(F)c1.[Pt].c1ccc([PH+](CC[PH+](c2ccccc2)c2ccccc2)c2ccccc2)cc1", 0.00),
    ("CCOC(=O)C#Cc1ccc(C#CC(=O)OCC)cc1", 1.22),
    ("O=C(COC(=O)c1ccccc1)c1ccc(Br)cc1", 1.06),
    ("COc1ccc(/C=C2\\CNC/C(=C\\c3ccc(OC)cc3)C2=O)cc1", 1.73),
]

Please turn your attention to the following entry.
Record request: log10 TGI value, item CC1=CC[C@H](C)C(C)(C)C1/C=C/C(C)=C/CC[C@@]1(CO)[C@H](CCCO)/C(=C(/C)C=O)CC[C@]1(C)O (stereo not given in full)
1.45

====

system: COLO 205 colon; assay: NCI tumour cell line growth inhibition, 48 h
observedProperty: TGI (µM)
Only the number, expressed in µM, is required.

Look over these answered cases.
# compound, observedProperty, observedResult
records = [
    ("Cc1ccc(NNc2cc(=O)[nH]c(=O)[nH]2)cc1Cl", "TGI", 30.6),
    ("COc1ccccc1/C=C1/Sc2scc(CC(=O)Nc3ccccc3)[n+]2C1=O", "TGI", 65.4),
    ("CCOC(=O)C1(Cc2ccccc2)CCN(C(=O)c2ccccc2)C2C1C2(Cl)Cl (configuration not stated)", "TGI", 35.9),
    ("Nc1ncc(-c2ccc(C(F)(F)F)cc2)c(NC2CCCCCC2)n1", "TGI", 36.7),
]

Record request: TGI value, item `c1cncc(CNc2ccccc2-c2nnc(Nc3ccc4c(c3)OCCO4)o2)c1`
0.817

====

tested on: BT-549 breast; assay: NCI tumour cell line growth inhibition, 48 h; in the data active means GI50 below about 0.43 µM; inactive means the rest
*1 amine or outer side, *2 acyl side, *3 side chain or, on linkers, in order; H or OH if unused. Where a SMILES comes first, the peptide text is derived from it. Bridges are numbered along the chain shown (N, C = ends). [ ]: non-standard residue; d: D form. The star is where a group is joined. Phe(3-Me) = Cc1cccc(C[C@H](N)C(=O)O)c1; NH(4-Cl-2-F-phenyl) = Fc1cc(Cl)ccc1N*; Pro(4R-Me) = C[C@H]1CN[C@H](C(=O)O)C1; Hyp = O=C(O)[C@@H]1C[C@@H](O)CN1; aThr = C[C@H](O)[C@H](N)C(=O)O; Pip = O=C(O)[C@@H]1CCCCN1; CO = O=C([*:1])[*:2]
Assign a class; possible classes are label 1 (active), label 0 (inactive)

# molecule, answerLabel
measured = [
    ("CCC(C)/C=C(C)/C=C/C(=O)c1c(O)c(-c2ccc(O)cc2)c[nH]c1=O (centres undefined)", "label 0"),
    ("C=C(CN1CCN(c2ccccc2F)CC1)c1ccc(C(=O)Nc2ccccc2N)cc1", "label 0"),
    ("N#CSCC1CC(O)(c2ccccc2)C(c2ccccc2)C(c2ccc(F)cc2)O1 (centres undefined)", "label 0"),
    ("COc1ccc(C2=C(c3cn(C)c4ccccc34)C(=O)NC2=O)cc1OC", "label 0"),
    ("Cn1c2ccccc2c2nnc(N/N=C/c3ccccn3)nc21", "label 0"),
    ("O=C(Nc1ccc(Nc2ccncc2)cc1)c1ccc(Nc2ccnc3ccc([N+](=O)[O-])cc23)cc1", "label 0"),
]

For this molecule, state the assay outcome: `Nc1ncc(-c2ccc(C(F)(F)F)cc2)c(NC2CCCCCC2)n1`
label 0

For this molecule, state the assay outcome: Cc1cccc(C[C@H](NC(=O)Nc2ccc(Cl)cc2F)C(=O)N[C@@H]2C(=O)N3C[C@H](O)C[C@H]3C(=O)N3CCCC[C@H]3C(=O)N[C@@H](C)C(=O)N3C[C@H](C)C[C@H]3C(=O)O[C@H]2C)c1 ({NH(4-Cl-2-F-phenyl)-CO}-[Phe(3-Me)][aThr][Hyp][Pip]A[Pro(4R-Me)]; ester 2-C)
label 0

For this molecule, state the assay outcome: `Cl.Fc1c[c-]c(-c2ccccn2)c(F)c1.[Pt].c1ccc([PH+](CC[PH+](c2ccccc2)c2ccccc2)c2ccccc2)cc1`
label 1

====

system: M14 melanoma; assay: NCI tumour cell line growth inhibition, 48 h
observedProperty: TGI

# molecule, observedResult
rows = [
    ("c1ccc2[nH]c(-c3ccc(OCCCCCOc4ccc(-c5nc6ccccc6[nH]5)cc4)cc3)nc2c1", "4.31 µM"),
]

Record request: TGI value, item COc1ccc(S(=O)Cc2cc(OC)ccc2OC)cc1 (centres undefined)
> 100 µM

Record request: TGI value, item COC1=C(C(=O)OC(C)(C)C)[C@]2(C)C(C(=O)OC(C)(C)C)C(OC)=C(C(=O)OC(C)(C)C)[C@]2(C)C1C(=O)OC(C)(C)C (some centres undefined)
> 100 µM

Record request: TGI value, item `CN(C)CCCNC(=O)CNC(=O)c1cc(NC(=O)c2cc(NC(=O)c3cc(NC(=O)CCNC(=O)c4cc(NC(=O)c5cc(NC(=O)c6nccn6C)cn5C)cn4C)cn3C)cn2C)cn1C`
> 100 µM

====

tested on: LOX IMVI melanoma; test: NCI tumour cell line growth inhibition, 48 h
observedProperty: TGI (µM)
Only the number, expressed in µM, is required.

Look over these answered cases.
# compound, TGI / µM
measured = [
    ("COC(=O)c1cc(C)ccc1CC(Cc1ccccc1C)C(=O)OC (stereo not drawn)", 28.1),
    ("O=C(/C=C/c1ccc(Cl)c(Cl)c1)CCN1CCN(CCC(=O)/C=C/c2ccc(Cl)c(Cl)c2)CC1", 33.7),
    ("O=[N+]([O-])/C(C(Cl)=C(Cl)Cl)=C(/Sc1ccccc1)N1CCOCC1", 3.04),
]

Please turn your attention to the following entry.
Item: C=C1C(=O)O[C@@H]2C[C@@H](C)[C@@H]3[C@@H](OC4OC(COC(C)=O)C(O)C(O)C4O)CC(=O)[C@@]3(C)C[C@H]12 (stereo partly drawn) Test system: LOX IMVI melanoma Read-out: TGI Value: ?
1.78

====

system: NCI-H226 lung; experiment: NCI tumour cell line growth inhibition, 48 h
Some molecules, each annotated with its measured TGI.
Only the number, expressed in µM, is required.

Look over these answered cases.
# molecule, observedResult
measured = [
    ("CC(=O)Oc1cccc2c1C(=O)C(Br)(Br)CCC2", 20.1),
    ("C#CC[C@H](c1nc2cc(Cl)ccc2c(=O)n1Nc1ccccc1)N(CCCN)C(=O)c1cccc(Cl)c1F", 4.56),
    ("C/C=C/[C@@H]1O[C@H](CC#C[Si](C)(C)C)[C@@]2(C=O)C(C)=CC[C@H](C(C)C)[C@@H]12", 41.7),
]

Record request: TGI value, item CCOP(=O)(OCC)C(Cc1ccccc1)N=C(c1ccccc1)c1ccccc1 (centres undefined)
32.9

Record request: TGI value, item `C=C(CN1CCN(c2ccccc2F)CC1)c1ccc(C(=O)Nc2ccccc2N)cc1`
17.3

Record request: TGI value, item CCOC(=O)NNC1(SC)NC(=O)c2c(cc(Cl)oc2=O)O1 (centres undefined)
43.8

====

test system: PC-3 prostate; assay: NCI tumour cell line growth inhibition, 48 h
Some compounds, each annotated with its measured TGI.

Look over these answered cases.
# compound, observedProperty, observedResult
rows = [
    ("COc1ccc(C2=C(c3cn(C)c4ccccc34)C(=O)NC2=O)cc1OC", "TGI", "> 25 µM"),
    ("COc1ncc(C#CC(=O)c2ccccc2OC)c(OC)n1", "TGI", "4.3 µM"),
    ("O=C(O)c1ccc(NS(=O)(=O)c2cccc3cccnc23)cc1", "TGI", "> 100 µM"),
    ("COc1cccc2c1C(=O)c1ccc3cc(CO)cc(O)c3c1C2=O", "TGI", "1.17 µM"),
    ("Cn1c2ccccc2n2c3ccccc3c(=S)c(C#N)c12", "TGI", "> 100 µM"),
    ("CC1(C)OC2CN(C(=O)OCc3ccccc3)C(CO)C2O1 (stereo not drawn)", "TGI", "> 100 µM"),
    ("CCOC(=O)c1cc2cc(CSc3ccccc3)ccc2oc1=O", "TGI", "> 100 µM"),
]

Please turn your attention to the following entry.
Record request: TGI value, item `O=C(Nc1ccncc1)C(=O)c1cn(S(=O)(=O)c2ccccc2F)c2ccccc12`
> 68.5 µM

====

test system: IGROV1 ovarian; test: NCI tumour cell line growth inhibition, 48 h; in the data active = GI50 below about 0.43 µM; inactive = the rest
Assign a class; possible classes are t for active, f for inactive

# molecule, answerLabel
records = [
    ("CN(C)CC#Cc1cccc(C(=O)c2cnn(-c3ccc(F)cc3)c2N)c1", "f"),
    ("O=C(Nc1cc(Cl)ccc1O)c1cccc(NC2=C(Cl)C(=O)N(Cc3ccccc3)C2=O)c1", "f"),
    ("Clc1cc(Cl)cc(N2N=C(c3cccc(Nc4ccncc4)c3)CC2c2ccc(Br)cc2)c1 (centres undefined)", "f"),
]

As a next step, examine the molecule that follows.
For this molecule, state the assay outcome: `Cc1c(Cl)cccc1NC(=O)c1sc2nc3c(cc2c1N)CCCCCC3`
t
